Assay: in vivo
Conditions: Balb/c, mouse, po, 10 mg/kg
# log10 of AUC(0-t) per record follows
Field: value | Transform: log10 | Quantity: AUC(0-t) | Unit: ng·h/mL

Query: Value lookup for log10 of AUC(0-t); key = `C[C@H](c1ccc(C(F)(F)F)cc1C(F)(F)F)n1cc(NC(=O)c2cc(-c3cnccn3)on2)cn1`
Reply: 4.99

Query: Here is the next compound: `O=C(Nc1cnn(Cc2ccc(C(F)(F)F)cc2C(F)(F)F)c1)c1cc(-c2cnccn2)on1`
Reply: 4.01

====

Target: UniProt P10635
Sequence (P10635 whole entry): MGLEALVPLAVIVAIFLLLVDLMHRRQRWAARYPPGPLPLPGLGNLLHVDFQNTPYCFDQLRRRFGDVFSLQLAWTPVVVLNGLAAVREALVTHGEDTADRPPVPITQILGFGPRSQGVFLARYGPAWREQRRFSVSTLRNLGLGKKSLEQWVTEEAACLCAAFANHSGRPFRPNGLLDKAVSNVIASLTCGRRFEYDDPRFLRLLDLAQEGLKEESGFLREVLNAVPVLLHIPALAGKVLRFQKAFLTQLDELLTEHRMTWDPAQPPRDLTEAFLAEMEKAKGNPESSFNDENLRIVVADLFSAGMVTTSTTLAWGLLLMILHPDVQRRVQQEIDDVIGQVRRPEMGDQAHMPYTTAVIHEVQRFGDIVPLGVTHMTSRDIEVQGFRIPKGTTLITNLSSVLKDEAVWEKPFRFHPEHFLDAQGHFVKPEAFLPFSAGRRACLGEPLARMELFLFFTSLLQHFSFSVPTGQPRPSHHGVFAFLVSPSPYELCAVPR
Test: CYP inhibition in human liver microsomes
IC50 reference
Give the quantity in µM, number only.

Query: Entry CC(c1ccc(C(F)(F)F)cc1C(F)(F)F)n1cc(NC(=O)c2cc(-c3ccco3)on2)cn1 (single isomer, unassigned) [“Enantiomer A” of Example S6] has what IC50?
Reply: 23.7

Query: Further, for CC(c1ccc(C(F)(F)F)cc1C(F)(F)F)n1cc(NC(=O)c2cc(-c3ccccn3)on2)cn1 (single isomer, unassigned) [“Enantiomer A” of Example S5] ?
Reply: 2.3

====

Biological target: CYP2C8 (Homo sapiens (Human), UniProt P10632)
Sequence (P10632 whole entry): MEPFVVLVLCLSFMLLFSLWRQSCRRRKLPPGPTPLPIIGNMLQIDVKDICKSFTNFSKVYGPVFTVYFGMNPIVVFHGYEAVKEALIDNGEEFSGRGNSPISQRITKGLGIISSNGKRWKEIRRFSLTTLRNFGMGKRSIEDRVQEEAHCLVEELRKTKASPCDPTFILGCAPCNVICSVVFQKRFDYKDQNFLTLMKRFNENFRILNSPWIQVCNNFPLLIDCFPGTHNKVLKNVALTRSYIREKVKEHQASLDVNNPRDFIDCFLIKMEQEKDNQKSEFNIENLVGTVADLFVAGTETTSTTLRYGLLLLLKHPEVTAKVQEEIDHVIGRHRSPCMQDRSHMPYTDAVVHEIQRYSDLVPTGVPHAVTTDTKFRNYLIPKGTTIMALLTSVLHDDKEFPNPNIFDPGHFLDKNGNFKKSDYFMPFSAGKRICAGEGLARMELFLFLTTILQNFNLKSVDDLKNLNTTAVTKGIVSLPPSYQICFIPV
Assay: CYP inhibition in human liver microsomes
Settings: read-out: CYP-2C8, metabolite desethylamodiaquine
# IC50 per record follows
The figure you give is taken to be in nM; do not add the unit.

# Compound, Assayed target, Endpoint result
measured = [
    ("O=C(Nc1cnn(Cc2ccc(C(F)(F)F)cc2C(F)(F)F)c1)c1cc(-c2ccccn2)on1", "CYP2C8 (Homo sapiens (Human), UniProt P10632)", 1090),
]

Continue with the next compound.
Query: Look at this compound and give its reported IC50. CC(c1ccc(C(F)(F)F)cc1C(F)(F)F)n1cc(NC(=O)c2cnc(-c3ccccn3)s2)cn1 (centres unmarked)
Reply: 1800

====

Reported Rem. @ hLM (%) values for the following compounds.
Test: In vitro microsomal stability, human liver microsomes
Format: in vitro ADME
Conditions: remaining fraction after 30 min; 1 μM compound, 0.5 mg/mL human liver microsomes, 1 mM NADPH
Kindly answer with a numeric value in %, unit omitted.

Solved entries (count: 2):
# Compound, Measured attribute, Endpoint result
data = [
    ("C[C@H](c1ccc(C(F)(F)F)cc1C(F)(F)F)n1cc(NC(=O)c2cnc(-c3ccccn3)s2)cn1 [Compound 104]", "Rem. @ hLM (%)", 76.44),
    ("O=C(Nc1cnn(Cc2ccc(C(F)(F)F)cc2C(F)(F)F)c1)c1cc(-c2ccccn2)on1 [Compound 11]", "Rem. @ hLM (%)", 73.5),
]

Query: What does the data say about its Rem. @ hLM (%)? Entry: O=C(Nc1cnn(Cc2ccc(C(F)(F)F)cc2C(F)(F)F)c1)c1cc(-c2ccco2)on1 [Ceapin-A7, reference compound]
Reply: 35.4

====

Test: In vitro microsomal stability, human liver microsomes
Format: in vitro ADME
Conditions: remaining fraction after 30 min; 1 μM compound, 0.5 mg/mL human liver microsomes, 1 mM NADPH
Measured attribute: Rem. @ hLM (%)
Your answer should be a plain number; it is taken to be in %.

Some compounds with recorded Rem. @ hLM (%):
# Smiles input, Rem. @ hLM (%)
records = [
    ("C[C@H](c1ccc(F)cc1C(F)(F)F)n1cc(NC(=O)c2cc(-c3ccccn3)on2)cn1", 39.72),
    ("Cc1c(NC(=O)c2cc(-c3ccco3)on2)cnn1Cc1ccc(C(F)(F)F)cc1C(F)(F)F", 74.1),
]

Next, consider the following compound.
Query: For `Cc1c(NC(=O)c2cc(-c3ccccn3)on2)cnn1[C@H](C)c1ccc(C(F)(F)F)cc1C(F)(F)F` , what is its reported Rem. @ hLM (%)?
Reply: 59.3
